So I've got a bunch of molecules here, and I need their Human Primary Hepatocyte Editing % 100 values.
Tested on: PCSK9 gene
PROTOCOL TEXT: PCSK9 gRNA/SpCas9 editing in primary human hepatocytes (Tables 2, 4)
Type: cell-based
COND: 100 ng/RNA/mL; SpCas9 mRNA MS002 1:1 by weight
In the oligonucleotide strings, read from the 5' end, every base follows the letter of its sugar. An asterisk marks phosphorothioate; unmarked linkages are phosphodiester. Other units and linkages are bracketed, terminal groups are in braces. A string of capitals states the bases alone. m = 2'-O-methyl; r = 2'-OH (RNA)
Give the figure together with its unit, number first.

Please report Human Primary Hepatocyte Editing % 100 for the following molecule: GA187: PCSK9 gRNA; protospacer CTCCTCGATGTAGTCGACAT (SEQ ID NO: 181) (nucleic acid) guide: mC*mU*mC*rCrUrCrGrArUrGrUrArGrUrCrGrArCrArUrGrUrUrUrUrArGrArGrCrUrArGrArArArUrArGrCrArArGrUrUrArArArArUrArArGrGrCrUrArGrUrCrCrGrUrUrArUrCrArArCrUrUrGrArArArArArGrUrGrGrCrArCrCrGrArGrUrCrGrGrUrGrCrU*mU*mU*mU
2.44%

Please report Human Primary Hepatocyte Editing % 100 for the following molecule: GA233: PCSK9 gRNA; protospacer GCGGCTGTACCCACCCGCCA (SEQ ID NO: 227) (nucleic acid, sugars from the 5' end m3 r94 m3, linkages s3 o93 s3 (s phosphorothioate, o phosphodiester), T or U not given here) guide: GCGGCUGUACCCACCCGCCAGUUUUAGAGCUAGAAAUAGCAAGUUAAAAUAAGGCUAGUCCGUUAUCAACUUGAAAAAGUGGCACCGAGUCGGUGCUUUU
3.08%
